biological target: PI3K-alpha (Homo sapiens); experiment: PI3K-alpha fluorescence polarization assay; type: biochemical; details: read-out: PI3Kα Avg. IC50
Sequence (P42336 whole entry, species assumed): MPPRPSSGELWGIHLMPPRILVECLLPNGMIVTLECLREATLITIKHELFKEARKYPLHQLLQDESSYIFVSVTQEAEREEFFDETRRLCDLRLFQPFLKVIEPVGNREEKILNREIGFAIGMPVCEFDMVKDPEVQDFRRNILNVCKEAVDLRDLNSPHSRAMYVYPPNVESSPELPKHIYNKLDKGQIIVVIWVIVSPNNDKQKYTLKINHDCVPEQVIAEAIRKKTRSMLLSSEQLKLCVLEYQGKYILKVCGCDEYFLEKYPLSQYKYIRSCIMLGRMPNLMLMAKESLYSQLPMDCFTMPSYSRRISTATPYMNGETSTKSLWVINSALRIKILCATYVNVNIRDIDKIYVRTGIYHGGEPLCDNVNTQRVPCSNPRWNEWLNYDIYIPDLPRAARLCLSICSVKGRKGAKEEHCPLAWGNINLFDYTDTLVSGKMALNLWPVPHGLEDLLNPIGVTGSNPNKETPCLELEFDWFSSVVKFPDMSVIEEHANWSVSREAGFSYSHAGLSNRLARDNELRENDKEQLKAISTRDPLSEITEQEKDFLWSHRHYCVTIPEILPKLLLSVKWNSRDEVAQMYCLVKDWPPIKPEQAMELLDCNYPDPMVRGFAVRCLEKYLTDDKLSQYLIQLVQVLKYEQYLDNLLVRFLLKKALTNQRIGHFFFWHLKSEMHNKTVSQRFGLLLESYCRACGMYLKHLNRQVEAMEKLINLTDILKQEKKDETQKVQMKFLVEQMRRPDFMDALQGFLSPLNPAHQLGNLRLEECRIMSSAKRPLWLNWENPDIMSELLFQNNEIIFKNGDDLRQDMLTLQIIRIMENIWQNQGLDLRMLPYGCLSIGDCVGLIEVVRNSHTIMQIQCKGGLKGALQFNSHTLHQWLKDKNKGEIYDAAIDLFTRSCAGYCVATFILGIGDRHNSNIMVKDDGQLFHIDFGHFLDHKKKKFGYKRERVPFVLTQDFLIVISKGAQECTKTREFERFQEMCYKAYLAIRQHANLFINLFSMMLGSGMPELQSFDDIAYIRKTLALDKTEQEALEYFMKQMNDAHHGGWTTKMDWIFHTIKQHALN
Sequence (P27986 whole entry partner, species assumed): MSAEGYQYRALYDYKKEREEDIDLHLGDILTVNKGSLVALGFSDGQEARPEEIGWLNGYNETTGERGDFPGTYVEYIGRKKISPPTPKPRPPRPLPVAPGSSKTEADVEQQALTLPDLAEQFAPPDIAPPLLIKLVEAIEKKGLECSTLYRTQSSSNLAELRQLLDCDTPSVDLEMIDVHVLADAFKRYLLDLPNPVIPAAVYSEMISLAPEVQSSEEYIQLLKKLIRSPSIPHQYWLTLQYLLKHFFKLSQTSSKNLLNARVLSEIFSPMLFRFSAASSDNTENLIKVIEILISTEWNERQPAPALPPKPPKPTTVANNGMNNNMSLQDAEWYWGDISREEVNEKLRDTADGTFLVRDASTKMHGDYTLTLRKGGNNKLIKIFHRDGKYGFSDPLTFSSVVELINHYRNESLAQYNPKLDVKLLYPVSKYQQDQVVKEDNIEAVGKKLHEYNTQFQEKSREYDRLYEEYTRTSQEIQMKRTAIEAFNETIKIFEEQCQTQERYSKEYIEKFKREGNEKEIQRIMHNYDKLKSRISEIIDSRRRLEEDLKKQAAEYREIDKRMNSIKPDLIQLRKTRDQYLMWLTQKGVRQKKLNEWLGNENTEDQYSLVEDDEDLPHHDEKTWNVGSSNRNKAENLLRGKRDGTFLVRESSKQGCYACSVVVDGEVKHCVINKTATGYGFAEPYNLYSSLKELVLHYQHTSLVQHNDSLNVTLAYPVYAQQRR
readoutName: IC50 (nM)

Examples with their reported IC50 follow.
The measured IC50 that COc1ccc2c(c1)c(C=C1Oc3c(ccc(O)c3O)C1=O)c(C)n2CCCCN1CCN(CCO)CC1 [Example 146] showed for PI3K-alpha (Homo sapiens) is 850

Record CNC(=O)Nc1ccc2c(c1)C(=O)/C(=C/c1c(C3CCCCC3)n(CCN3CCN(C)CC3)c3ccc(OC)cc13)O2 [Compound 533] has PI3K-alpha (Homo sapiens) IC50 equal to 2.2

Known value: PI3K-alpha (Homo sapiens) IC50 of the molecule O=C1C(=Cc2c(Br)[nH]c3ccccc23)Oc2c1ccc(O)c2O [Example 81] equals 234

a: N#Cc1ccc2c(C=C3Oc4cc(O)cc(O)c4C3=O)c[nH]c2c1 [Example 167]
b: COc1ccc2c(c(C=C3Oc4cc(O)cc(O)c4C3=O)cn2C)c1C [Example 236]
c: COc1ccc2[nH]c(CN3CCN(C)CC3)c(/C=C3\Oc4cc(O)cc(O)c4C3=O)c2c1 [Example 346]
d: CNC(=O)Nc1ccc2c(c1)C(=O)/C(=C/c1c(-c3ccncc3)n(CCN3CCN(C)CC3)c3ccc(OC)cc13)O2 [Compound 590]
Hey, quick one: sort these by IC50, low to high? Your reply should list the labels following the order given in the request.
d, c, b, a
(d: 3.67 nM, c: 6.1 nM, b: 1470 nM, a: 6760 nM)

1: Cc1ccc2c(/C=C3\Oc4cc(O)ccc4C3=O)c[nH]c2c1 [Example 31]
2: Cn1cc(/C=C2\Oc3cc(O)cc(O)c3C2=O)c2c(-c3ccc(F)cc3)cccc21 [Example 364]
3: COc1ccc2c(c1)c(/C=C1\Oc3ccc(NC(N)=O)cc3C1=O)cn2CCCN(C)C [Compound 537]
4: COc1ccc2c(c1)c(/C=C1\Oc3cc(O)cc(O)c3C1=O)c(C(F)(F)F)n2CCn1cccn1 [Example 337]
5: CNC(=O)Nc1ccc2c(c1)C(=O)/C(=C/c1cn(C)c3c(CCCN4CCN(C)CC4)cc(OC)cc13)O2 [Compound 572]
Sequence the entries by IC50, beginning with the highest number. When ranking, write the labels in the order the request describes.
1, 5, 2, 3, 4
(1: 9600 nM, 5: 1660 nM, 2: 698 nM, 3: 421 nM, 4: 13 nM)
